# credit: paper PMC13541613

# SUBJECT_OF_TEST: ZNF721 DBD2 (Homo sapiens, UniProt Q8TF20-2 395-923)
# Sequence (Q8TF20 383-911): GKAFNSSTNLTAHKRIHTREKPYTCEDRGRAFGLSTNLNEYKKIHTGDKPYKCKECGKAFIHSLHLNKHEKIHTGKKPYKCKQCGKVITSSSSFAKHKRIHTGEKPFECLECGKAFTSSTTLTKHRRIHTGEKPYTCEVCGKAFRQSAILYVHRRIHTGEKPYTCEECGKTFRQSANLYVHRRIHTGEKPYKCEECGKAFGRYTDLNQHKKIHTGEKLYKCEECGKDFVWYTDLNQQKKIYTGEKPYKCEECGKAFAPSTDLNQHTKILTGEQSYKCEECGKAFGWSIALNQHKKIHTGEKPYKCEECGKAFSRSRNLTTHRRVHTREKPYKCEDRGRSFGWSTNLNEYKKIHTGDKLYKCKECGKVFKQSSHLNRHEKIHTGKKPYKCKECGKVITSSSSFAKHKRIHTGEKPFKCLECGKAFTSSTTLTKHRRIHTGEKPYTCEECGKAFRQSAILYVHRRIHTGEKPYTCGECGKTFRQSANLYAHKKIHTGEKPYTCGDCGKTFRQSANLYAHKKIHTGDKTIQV
# PROTOCOL_DESCRIPTION: HT-SELEX; 20 mM HEPES pH 7, 140 mM KCl, 5 mM NaCl, 1 mM K2HPO4, 2 mM MgSO4, 100 uM EGTA, ZnSO4, 0.1% Tween20; room temperature, 1 h; high values mean tight binding
# CONDITION_INFO: protein: ivt; tags: eGFP (N-terminal); dsDNA, one strand shown
Each entry gets false (0) if its binding signal stays under 0.04 relative 10-mer count, and true (1) if its binding signal is 0.04 relative 10-mer count or above.

>>> category("CCCCACCTCC")
"false (0)"
>>> category("ACCCACCCTC")
"false (0)"
>>> category("AAAGCAGCCC")
"true (1)"
>>> category("ACCGCCCCAC")
"false (0)"
>>> category("CCTCGCCCCC")
"false (0)"
>>> category("GAAACACTGC")
"true (1)"
>>> category("CAGCGTTTCC")
"true (1)"
>>> category("CCTCCACCCA")
"false (0)"
>>> category("AAAAAGCTGC")
"false (0)"
>>> category("AAAAAAGAAG")
"false (0)"

---

Measured binding signal accompanies every entry in the list below.
# SUBJECT_OF_TEST: ZNF721 DBD1 (Homo sapiens, UniProt Q8TF20-2 29-461)
# Sequence (Q8TF20 17-449): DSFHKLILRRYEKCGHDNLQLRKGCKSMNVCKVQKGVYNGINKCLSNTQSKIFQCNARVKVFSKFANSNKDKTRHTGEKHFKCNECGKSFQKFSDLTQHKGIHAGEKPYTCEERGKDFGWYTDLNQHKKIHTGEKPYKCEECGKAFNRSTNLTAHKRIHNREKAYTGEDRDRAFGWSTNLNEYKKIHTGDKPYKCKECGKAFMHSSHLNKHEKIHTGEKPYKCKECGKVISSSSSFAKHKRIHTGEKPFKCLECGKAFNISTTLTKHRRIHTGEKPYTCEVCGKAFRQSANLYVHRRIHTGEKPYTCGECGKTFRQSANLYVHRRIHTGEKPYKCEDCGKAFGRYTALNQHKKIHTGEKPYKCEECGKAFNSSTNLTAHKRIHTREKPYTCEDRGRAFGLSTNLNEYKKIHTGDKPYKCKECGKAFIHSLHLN
# PROTOCOL_DESCRIPTION: HT-SELEX; 20 mM HEPES pH 7, 140 mM KCl, 5 mM NaCl, 1 mM K2HPO4, 2 mM MgSO4, 100 uM EGTA, ZnSO4, 0.1% Tween20; room temperature, 1 h; high values mean tight binding
# CONDITION_INFO: protein: ivt; tags: eGFP (N-terminal); dsDNA, one strand shown
PROPERTY_LABEL: binding signal (relative 10-mer count)

>>> measurement("ATACACTTCA")
0.223
>>> measurement("ACCACCCACC")
0.00945
>>> measurement("AAAAAGCGTC")
0.0239
>>> measurement("GCCCACCACC")
0.00688
>>> measurement("CCACCACCCG")
0.00564
>>> measurement("AGGGAGGGGG")
0.00628
>>> measurement("ACCCTCCACC")
0.00482
>>> measurement("CCCCAACCCA")
0.00482
>>> measurement("CACCCCCCTC")
0.00633
>>> measurement("CACCCCCAAC")
0.00514

---

# SUBJECT_OF_TEST: ZNF721 DBD2 (Homo sapiens, UniProt Q8TF20-2 395-923)
# PROTOCOL_DESCRIPTION: HT-SELEX; 20 mM HEPES pH 7, 140 mM KCl, 5 mM NaCl, 1 mM K2HPO4, 2 mM MgSO4, 100 uM EGTA, ZnSO4, 0.1% Tween20; room temperature, 1 h; high values mean tight binding
# CONDITION_INFO: protein: ivt; tags: eGFP (N-terminal); dsDNA, one strand shown
Measured binding signal accompanies every entry in the list below.
PROPERTY_LABEL: binding signal (relative 10-mer count)

>>> measurement("CCCCCCAACC")
0.00707
>>> measurement("AACACTGCTT")
0.495
>>> measurement("CCACACCCCA")
0.00503
>>> measurement("CCACCCTCAC")
0.00791
>>> measurement("CCCCGCACCC")
0.00252
>>> measurement("CCCCGCCCTC")
0.00216
>>> measurement("ACCAAAAAAA")
0.0723
>>> measurement("CCCACCACCG")
0.00503
>>> measurement("CACCCACCAC")
0.00779
>>> measurement("CCCGCCCCCG")
0.00144
>>> measurement("ACCTCCCCCC")
0.00216
>>> measurement("CCCACCACAC")
0.00947
>>> measurement("ACAAAAAAGC")
0.0647
>>> measurement("CTCCCCCACC")
0.00348
>>> measurement("CACCCCCCTC")
0.00479
>>> measurement("ACCCCACCAC")
0.00407
>>> measurement("ACCCCCAACC")
0.00479
>>> measurement("CCCAACCCCA")
0.00372
>>> measurement("CCACCCACCA")
0.00791
>>> measurement("CCCCAACCCA")
0.00384
>>> measurement("AAGCGTATCC")
0.00863
>>> measurement("CACCCCCACA")
0.00779
>>> measurement("TAAAAAAGCA")
0.114
>>> measurement("CTACCCCCCC")
0.00312
>>> measurement("CAGTGTCTCC")
0.552
>>> measurement("CCTCCCCTCC")
0.0132
>>> measurement("CACCCCATCC")
0.00575
>>> measurement("GTGGGGGGGA")
0.00348
>>> measurement("GACCCACCCC")
0.0018
>>> measurement("CGTCCCCCAC")
0.00407
>>> measurement("CCCCTTCCCC")
0.00192
>>> measurement("CGCCCACCCC")
0.00252
>>> measurement("CCCCGTCCCC")
0.00192
>>> measurement("ACCCCTCCCC")
0.00216
>>> measurement("CGACCCCCCC")
0.0018
>>> measurement("CCCACCCAGC")
0.003
>>> measurement("CTCCCGCCCC")
0.00192
>>> measurement("CCACCCCCGA")
0.00264
>>> measurement("GGGGTGGGCA")
0.00395
>>> measurement("CCCGCCCCCA")
0.00132
>>> measurement("AAACAGGGTT")
0.368
>>> measurement("CCCCCCAGCC")
0.00228
>>> measurement("GGCGGGGGGA")
0.0024
>>> measurement("CCACCCCAGC")
0.00252
>>> measurement("GGGTGGGGGA")
0.00443
>>> measurement("CCAAAAAAAC")
0.082
>>> measurement("CTCCCCACCC")
0.00395
>>> measurement("GCCCCAACCC")
0.00168
>>> measurement("CATACCCAAA")
0.0665
>>> measurement("CCCTCCCTCC")
0.0211
>>> measurement("CCCCGCGCCC")
0.00228
>>> measurement("ACCCACCCCA")
0.00515
>>> measurement("AACAGCGTAT")
0.366
>>> measurement("AAAACAGGGG")
0.145
>>> measurement("ACAGTGTTGC")
0.341
>>> measurement("CCACCCCCAC")
0.00515
>>> measurement("AAACACTGCT")
0.18
>>> measurement("CTCCCCCGCC")
0.00216
>>> measurement("ACCTCCCCAC")
0.0036
>>> measurement("CCGCCACCCA")
0.00276
>>> measurement("CCACCCCCTC")
0.00312
>>> measurement("GAAACGCTGC")
0.169
>>> measurement("AAAAAAAAAC")
0.0808
>>> measurement("GCCCCCTCCC")
0.00384
>>> measurement("CCCACCGCCA")
0.00563
>>> measurement("CCCGCCCTCC")
0.0018
>>> measurement("CCCCCGACCC")
0.0018
>>> measurement("CACCCCAACC")
0.00407
>>> measurement("AAAAAGCTCA")
0.00407
>>> measurement("CCCCCCGCCG")
0.0024
>>> measurement("ACAGCGTATC")
0.371
>>> measurement("ACAGCGTACC")
0.259
>>> measurement("ACGCCCCACC")
0.00431
>>> measurement("AGCAGCATAC")
0.164
>>> measurement("ACCCCCCTCC")
0.00336
>>> measurement("CCGCCCCACC")
0.00407
>>> measurement("AGGGCGGGGG")
0.00276

---

Measured binding signal accompanies every entry in the list below.
# SUBJECT_OF_TEST: ZNF721 full-length (Homo sapiens, UniProt Q8TF20-2 1-923)
# Sequence (Q8TF20 other isoform, or with tags, fused parts or gaps): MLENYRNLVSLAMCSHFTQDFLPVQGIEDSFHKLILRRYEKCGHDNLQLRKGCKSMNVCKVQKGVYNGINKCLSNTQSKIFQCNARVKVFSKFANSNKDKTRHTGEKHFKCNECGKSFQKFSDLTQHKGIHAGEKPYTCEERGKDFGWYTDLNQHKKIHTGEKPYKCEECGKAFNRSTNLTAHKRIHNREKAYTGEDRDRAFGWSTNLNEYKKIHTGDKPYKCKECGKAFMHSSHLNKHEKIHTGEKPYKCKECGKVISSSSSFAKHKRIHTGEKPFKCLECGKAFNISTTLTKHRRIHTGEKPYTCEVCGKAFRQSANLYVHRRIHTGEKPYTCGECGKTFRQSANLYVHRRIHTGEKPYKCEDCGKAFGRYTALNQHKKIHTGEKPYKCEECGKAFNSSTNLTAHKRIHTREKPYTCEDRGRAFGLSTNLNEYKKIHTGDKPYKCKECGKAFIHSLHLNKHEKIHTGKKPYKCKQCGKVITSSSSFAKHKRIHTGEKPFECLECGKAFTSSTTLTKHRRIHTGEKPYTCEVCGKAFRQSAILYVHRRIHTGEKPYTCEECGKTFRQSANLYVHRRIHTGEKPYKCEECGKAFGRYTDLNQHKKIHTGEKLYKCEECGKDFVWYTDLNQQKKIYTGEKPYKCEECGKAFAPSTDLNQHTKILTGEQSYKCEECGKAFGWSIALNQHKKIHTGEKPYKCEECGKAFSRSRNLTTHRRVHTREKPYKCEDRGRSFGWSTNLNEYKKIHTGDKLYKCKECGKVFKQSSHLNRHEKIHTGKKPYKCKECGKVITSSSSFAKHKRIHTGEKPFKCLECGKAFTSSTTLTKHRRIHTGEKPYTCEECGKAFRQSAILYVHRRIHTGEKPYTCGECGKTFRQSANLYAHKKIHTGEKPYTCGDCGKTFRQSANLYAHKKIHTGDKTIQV
# PROTOCOL_DESCRIPTION: HT-SELEX; 20 mM HEPES pH 7, 140 mM KCl, 5 mM NaCl, 1 mM K2HPO4, 2 mM MgSO4, 100 uM EGTA, ZnSO4, 0.1% Tween20; room temperature, 1 h; high values mean tight binding
# CONDITION_INFO: protein: ivt; tags: eGFP (N-terminal); dsDNA, one strand shown
PROPERTY_LABEL: binding signal (relative 10-mer count)

>>> measurement("CCCTCCCGCC")
0.161
>>> measurement("AGCTTTTTTC")
0.449
>>> measurement("CCCACCCAGC")
0.106
>>> measurement("GCTGTTTTTA")
0.135
>>> measurement("GCCCCACCCC")
0.216
>>> measurement("AAAAACAGCC")
0.167
>>> measurement("CCTCCCCCTC")
0.15
>>> measurement("CCCCCACGCC")
0.181
>>> measurement("ACCCCACCTC")
0.104
>>> measurement("ACCCCCGCCC")
0.173
>>> measurement("CCCCCCTCAC")
0.103
>>> measurement("CCCACCCGCA")
0.109
>>> measurement("ACCCGCCCAC")
0.115
>>> measurement("CCCGCCCACC")
0.259
>>> measurement("CCCACCATCC")
0.152
